- protocol_details: Single-dose (Day 1) pharmacokinetics of Compound tablets, first-time-in-human study
- experimental_context: human, plasma, po, 10 mg, Cmax, Day 1, oral tablets, fasting, 10.0 mg loading dose, mean (CV %) and range
observed_property: Cmax

**Q:** Give Cmax for CC(=O)Nc1cccc(-n2c(=O)n(C3CC3)c(=O)c3c(Nc4ccc(I)cc4F)n(C)c(=O)c(C)c32)c1
**A:** 65.1 to 87.8 ng/mL

====

- protocol_details: Single-dose (Day 1) pharmacokinetics of Compound tablets, first-time-in-human study
- experimental_context: human, plasma, po, 8 mg, Cmax, Day 1, oral tablets, fasting, 8.0 mg loading dose, mean (CV %) and range
observed_property: Cmax

**Q:** Give Cmax for CC(=O)Nc1cccc(-n2c(=O)n(C3CC3)c(=O)c3c(Nc4ccc(I)cc4F)n(C)c(=O)c(C)c32)c1 [Compound]
**A:** 4.28 to 32 ng/mL
